# Tested on: MS2 coat protein
# assayDetails: apparent KD of MS2 coat protein, switch OFF state (with FMN for OFF switches, without FMN for ON switches); designed switch direction (-1 OFF switch, 1 ON switch): -1; higher = weaker reporter binding
# conditionNotes: FMN input: 0 or 200 uM; Eterna round: R93 (includes R88 designs)
Binary classification by apparent KD of MS2 coat protein, with 40 nM as an inclusive lower bound for 1; all other cases are -1.

Below, 4 sequences whose answers are already recorded.
chainSequence | systemName | assignedClass
AAGAAACAUGAGGAUCACCCAUGUGAGGAUAUCUAAAAGAAAAGAAAAGAAAGAAGAAAGAGAAGGCACAAAGG [Setut] | MS2 coat protein | 1
CUCAAGUAAGGAUAUGCAAGAAAAGAAAAGAAAGAAAAGAAGCAGAAGGUACAUGAGGAUCACCCAUGUAAGAA [EteRNA is fun!] | MS2 coat protein | 1
GAAAAGUGAGGAUAUUCGGAAGGGAAAGCGCAAACCCAACCGAAGAAGGCACAUGAGGAUCACCCAUGUGGAAG [Mat - Exaclusion 4 - Eli mod - D58] | MS2 coat protein | -1
AAAAAACAUGAGGAUCACCCAUGUGAGGAUAUGUACGAAAAUAAAUAAAAAUAAAAGUACAGAAGGCACAAAAA [66%, Wbt, 2] | MS2 coat protein | 1

State whether the measured apparent KD of MS2 coat protein reaches 40 nM, counting equality as reaching it, for AAGAAGUCAGGAUAUGCCAGAGAUCAAGAAAGUGACGAGUAGCAGAAGGGACAUGAGGAUCACCCAUGUAAAGA [Opal 8] -1

State whether the measured apparent KD of MS2 coat protein reaches 40 nM, counting equality as reaching it, for CUCUAGUUAGGAUAUCGAAGAAAAGAAAAGAAAGAAAAGAACGAGAAGGAACAUGAGGAUCACCCAUGUAAGAA [EteRNA is fun!] -1

State whether the measured apparent KD of MS2 coat protein reaches 40 nM, counting equality as reaching it, for AAAACGGCAGGAUAUACAGAUGAGAACUCGACCGAAAAAAAACAUGAGGAUCACCCAUGUAGAAGGGCCAAAAA [Ex2 Malc#6] 1

State whether the measured apparent KD of MS2 coat protein reaches 40 nM, counting equality as reaching it, for GGAAAACAUGAGGAUCACCCAUGUAAGGAUAUGCUAAAAAAAAAAAAAAAAAAAAAAUGCAGAAGGUACUAAAG [Amethyst 18] 1

* * *

# System: MS2 coat protein
# assayDetails: apparent KD of MS2 coat protein; designed switch direction (-1 OFF switch, 1 ON switch): 1; higher = weaker reporter binding
# conditionNotes: input ligand: microRNA oligo, concentration not stated
Binary classification by apparent KD of MS2 coat protein, with 100 nM as an inclusive lower bound for class 1; all other cases are class 0.

Below, 4 sequences whose answers are already recorded.
chainSequence | systemName | assignedClass
UUAAUUAAUUAAUUAUACAUGAGGAUCACCCAUGUAAGUGAUCAGGAUAUCAGCUCGUUUAGAGCUGAGAAGGGAUCCAUGUAA [SSNG3/14-A3] (Eterna round: R96, puzzle: Same State NG 3) | MS2 coat protein | class 1
CAAGAAAACGCAGGAUAUACCCGGACAACCCGGGUAGAAGGGUGACACAUGAGGAUCACCCAUGUACAUGGCAAUAACCAUGGA [Sobiais] (Eterna round: R96, puzzle: Same State NG 1) | MS2 coat protein | class 0
GGUAGGUUACUACCAGACAUGAGGAUCACCCAUGUAAGUGGGAAGGAUAUGGUACCUUUUAGGUACCAGAAGGUCCAUAUAUUC [JL SSNG3 1.44] (Eterna round: R96, puzzle: Same State NG 3) | MS2 coat protein | class 1
AUAGUUGCCGAAGGAUAUGAUGAGGAUCACCCAUCAGAAGGUUGGCUAUUGGGUGGACAUGAGGAUCACCCAUGUUCUUUGGUA (Eterna round: R96, puzzle: Same State NG 1) | MS2 coat protein | class 1

Now for a further sequence.
State whether the measured apparent KD of MS2 coat protein reaches 100 nM, counting equality as reaching it, for UAGUGCGUUAGAGGAUAUUCUAAAUAAAAUAAUAAGACAUGAGGAUCACCCAUGUAUGUACAUGGGAAGAAGGCUGAUGUGCUA [Omei SS(NG)2 Bv2] (Eterna round: R96, puzzle: Same State NG 2) class 1
